Target: Cytochrome P450 2C19 (Homo sapiens)
Assay: blockers of cytochrome P450 2C19 activity – biochemical, luminescence, ADME assay, primary screen (AID 778)
Details: CYP2C19 Supersomes, luciferin-H EGE luminescence, 30 min; at 5 µM
About 20,000 (21%) of roughly 96,000 compounds were called active.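 The calls were made as follows: active = CYP2C19 inhibition above a set limit at 5 µM in the primary screen (cut at about 50% in these data); inactive = the rest.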 These entries were drawn from the full list.
Please answer using one outcome listed in Yes for active, No for inactive

Solved entries:
CC(C)NS(=O)(=O)c1ccc(NC(=O)C2CCCCC2)cc1 ... No
CCOC(=O)C(C)Sc1nc2ccccc2c(=O)n1CC1CCCCC1 (centres undefined) ... Yes

What classification did Cn1c(C(=O)NCCCN2CCN(c3cccc(Cl)c3)CC2)cc2c(=O)n(C)c3ccccc3c21 end up with in this test?
No

Status in this test for CC(NC(=O)CSc1nc2c(cc1C#N)CN(C)CC2)c1ccccc1 (centres undefined) ?
Yes
